biological target: T1, cynomolgus IgE (recombinant chimaeric D12 variable region and cynomolgus IgE constant region) (cynomolgus monkey (constant region); …); experiment: HTRF competition; scFv titrated vs Eu-cryptate cynomolgus IgE binding to human FcεRI-Fc; geomean
T1 construct: The entries may hold a leader peptide; also called cyno IgE; cynomolgus monkey IgE
T1 sequence (heavy, as listed by the source limits assumed, chain 1 of 2): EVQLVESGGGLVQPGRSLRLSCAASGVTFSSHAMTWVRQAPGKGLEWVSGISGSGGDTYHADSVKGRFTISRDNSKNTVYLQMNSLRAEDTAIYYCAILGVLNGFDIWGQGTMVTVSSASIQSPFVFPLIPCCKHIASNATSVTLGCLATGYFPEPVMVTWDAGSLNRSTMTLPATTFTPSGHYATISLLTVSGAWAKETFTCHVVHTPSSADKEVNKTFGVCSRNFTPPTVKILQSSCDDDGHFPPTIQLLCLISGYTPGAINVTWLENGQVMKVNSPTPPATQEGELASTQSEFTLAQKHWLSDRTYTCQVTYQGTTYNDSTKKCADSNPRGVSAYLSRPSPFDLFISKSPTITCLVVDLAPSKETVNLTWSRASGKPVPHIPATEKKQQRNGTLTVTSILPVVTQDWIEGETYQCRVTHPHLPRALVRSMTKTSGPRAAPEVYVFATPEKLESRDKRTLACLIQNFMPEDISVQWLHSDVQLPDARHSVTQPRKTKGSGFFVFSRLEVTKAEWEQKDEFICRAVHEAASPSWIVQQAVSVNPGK
T1 sequence (light, as listed by the source limits assumed, chain 2 of 2): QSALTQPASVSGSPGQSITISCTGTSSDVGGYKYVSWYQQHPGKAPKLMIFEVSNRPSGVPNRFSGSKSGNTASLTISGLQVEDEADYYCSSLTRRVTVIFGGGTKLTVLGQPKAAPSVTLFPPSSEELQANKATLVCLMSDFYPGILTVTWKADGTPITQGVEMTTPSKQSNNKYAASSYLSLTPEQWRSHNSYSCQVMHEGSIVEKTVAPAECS
pIC50: −log10 of the molar value.
Catalogue of pIC50 values

| binder | pIC50 |
| --- | --- |
| Antibody 15 scFv (scFv, V domains shown, Purified scFv) VH: QVQLVQSGAEVKKPGATVKLSCKVYGYIFTDYNIYWVRQAPGKGLEWMGLIDPDNGETFYAEKFQGRATMTADTSSDRAYMELTSLTFEDTATYYCATVTLKTAKGGYDYWGRGTLVTVSS VL: QSVLTQPPSVSGAPGQRVTISCTGSSSNIGAGYDVHWYQQLPGTAPKLLIYDNFNRPSGVPDRFSGSKSGTSASLAIIGLQTEDEADYYCQSYDSHKGYGGFGTGTKLTVL | 6.76 |
| Antibody 3 scFv (scFv, V domains shown, Purified scFv) VH: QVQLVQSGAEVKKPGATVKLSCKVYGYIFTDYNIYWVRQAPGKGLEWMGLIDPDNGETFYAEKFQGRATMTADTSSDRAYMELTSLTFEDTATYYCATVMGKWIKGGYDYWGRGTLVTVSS VL: QSVLTQPPSVSGAPGQRVTISCTGSSSNIGAGYDVHWYQQLPGTAPKLLIYDNFNRPSGVPDRFSGSKSGTSASLAIIGLQTEDEADYYCQSYDSTFNHAPFGTGTKLTVL | 7.74 |
| Antibody 22 scFv (scFv, V domains shown, Purified scFv) VH: QVQLVQSGAEVKKPGATVKLSCKVYGYIFTDYNIYWVRQAPGKGLEWMGLIDPDNGETFYAEKFQGRATMTADTSSDRAYMELTSLTFEDTATYYCATVTLKSAKGGYDYWGRGTLVTVSS VL: QSVLTQPPSVSGAPGQRVTISCTGSSSNIGAGYDVHWYQQLPGTAPKLLIYDNFNRPSGVPDRFSGSKSGTSASLAIIGLQTEDEADYYCQSYDSSGGYAPFGTGTKLTVL | 7.17 |
| Antibody 14 scFv (scFv, V domains shown, Purified scFv) VH: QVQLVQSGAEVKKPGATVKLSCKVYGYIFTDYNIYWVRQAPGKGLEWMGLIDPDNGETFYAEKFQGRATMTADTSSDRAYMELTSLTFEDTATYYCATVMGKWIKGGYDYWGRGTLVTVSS VL: QSVLTQPPSVSGAPGQRVTISCTGSSSNIGAGYDVHWYQQLPGTAPKLLIYDNFNRPSGVPDRFSGSKSGTSASLAIIGLQTEDEADYYCQSYDSHHRHSPFGTGTKLTVL | 7.82 |
| Antibody 23 scFv (scFv, V domains shown, not shown: small tags and cut ends, Purified scFv) VH: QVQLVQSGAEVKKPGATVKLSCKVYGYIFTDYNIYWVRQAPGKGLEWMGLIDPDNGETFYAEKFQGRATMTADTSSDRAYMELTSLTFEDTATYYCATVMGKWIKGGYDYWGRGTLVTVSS VL: QSVLTQPPSVSGAPGQRVTISCTGSSSNIGAGYDVHWYQQLPGTAPKLLIYDNFNRPSGVPDRFSGSKSGTSASLAIIGLQTEDEADYYCQSYDSHHLYSSFGTGTKLTVL | 8.22 |
| Antibody 17 scFv (scFv, V domains shown, Purified scFv) VH: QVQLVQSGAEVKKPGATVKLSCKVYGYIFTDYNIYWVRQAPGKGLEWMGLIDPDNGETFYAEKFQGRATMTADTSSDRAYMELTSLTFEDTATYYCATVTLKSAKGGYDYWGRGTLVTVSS VL: QSVLTQPPSVSGAPGQRVTISCTGSSSNIGAGYDVHWYQQLPGTAPKLLIYDNFNRPSGVPDRFSGSKSGTSASLAIIGLQTEDEADYYCQSYDSQSSTSPFGTGTKLTVL | 6.96 |
| Antibody 9 scFv (scFv, V domains shown, Purified scFv) VH: QVQLVQSGAEVKKPGATVKLSCKVYGYIFTDYNIYWVRQAPGKGLEWMGLIDPDNGETFYAEKFQGRATMTADTSSDRAYMELTSLTFEDTATYYCATVTLRSAKGGYDYWGRGTLVTVSS VL: QSVLTQPPSVSGAPGQRVTISCTGSSSNIGAGYDVHWYQQLPGTAPKLLIYDNFNRPSGVPDRFSGSKSGTSASLAIIGLQTEDEADYYCQSYDSPSSTSPFGTGTKLTVL | 6.88 |
| Antibody 4 scFv (scFv, V domains shown, Purified scFv) VH: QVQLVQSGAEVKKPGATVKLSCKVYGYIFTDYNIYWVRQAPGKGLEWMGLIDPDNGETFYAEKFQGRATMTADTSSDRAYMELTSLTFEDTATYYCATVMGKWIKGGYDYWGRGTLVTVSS VL: QSVLTQPPSVSGAPGQRVTISCTGSSSNIGAGYDVHWYQQLPGTAPKLLIYDNFNRPSGVPDRFSGSKSGTSASLAIIGLQTEDEADYYCQSYDSRGGHSPFGTGTKLTVL | 8.30 |
| Antibody 11 scFv (scFv, V domains shown, Purified scFv) VH: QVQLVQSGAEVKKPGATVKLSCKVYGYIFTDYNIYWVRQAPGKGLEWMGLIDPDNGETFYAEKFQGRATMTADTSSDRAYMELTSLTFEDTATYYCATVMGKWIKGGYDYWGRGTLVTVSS VL: QSVLTQPPSVSGAPGQRVTISCTGSSSNIGAGYDVHWYQQLPGTAPKLLIYDNFNRPSGVPDRFSGSKSGTSASLAIIGLQTEDEADYYCQSYDSPTLTSPFGTGTKLTVL | 8.15 |
| Antibody 16 scFv (scFv, V domains shown, Purified scFv) VH: QVQLVQSGAEVKKPGATVKLSCKVYGYIFTDYNIYWVRQAPGKGLEWMGLIDPDNGETFYAEKFQGRATMTADTSSDRAYMELTSLTFEDTATYYCATVSLKSAKGGYDYWGRGTLVTVSS VL: QSVLTQPPSVSGAPGQRVTISCTGSSSNIGAGYDVHWYQQLPGTAPKLLIYDNFNRPSGVPDRFSGSKSGTSASLAIIGLQTEDEADYYCQSYDSRHHHAPFGTGTKLTVL | 7.20 |
